measurement_kind: melting point

Requested field: melting point. Item: O=S(=O)(Nc1cnccn1)c1ccc(C(F)(F)F)cc1 [Compound 5a] 154.3 to 155.5 °C

Now this one: O=S(=O)(Nc1cncc(Cl)n1)c1ccc2ccccc2c1 [Compound 13b] 204.6 to 207 °C

What do you get for Cc1cc(C)cc(S(=O)(=O)Nc2cnccn2)c1 [Compound 8a] ? 184 to 187 °C

Please give the result for O=S(=O)(Nc1cnccn1)c1ccc2ncccc2c1 [Compound 14a, N-(pyrazin-2-yl)quinoline-6-sulfonamide] too. 249.4 to 252 °C

Proceed to O=[N+]([O-])c1ccc(S(=O)(=O)Nc2cnccn2)cc1 [Compound 3a] 230.8 to 231.8 °C

Would you mind doing O=S(=O)(Nc1cncc(Cl)n1)c1ccc2c(c1)OCCO2 [Compound 11b] as well? 244.6 to 247 °C

Now try O=S(=O)(Nc1cncc(Cl)n1)c1ccc(Br)cc1 [Compound 7b] . 176.5 to 179.3 °C

Moving on to O=S(=O)(Nc1cnccn1)c1ccc2ccccc2c1 [Compound 13a] 223.5 to 224.7 °C

Moving on to the next compound: O=S(=O)(Nc1cncc(Cl)n1)c1ccccc1 [Compound 1b] 198 to 200.2 °C

// query: Nc1ccc(S(=O)(=O)Nc2cncc(Cl)n2)cc1 [Compound 4b] 234.7 to 236.1 °C

Then O=S(=O)(Nc1cnccn1)c1ccccc1 [Compound 1a, N-(pyrazin-2-yl)benzenesulfonamide] ? 203 to 205 °C

What do we get for O=S(=O)(Nc1cncc(Cl)n1)c1ccc(-c2ccccc2)cc1 [Compound 12b] ? 229.3 to 230.3 °C

What do you get for Cc1cc(C)c(C)c(S(=O)(=O)Nc2cnccn2)c1C [Compound 10a] ? 221 to 223.7 °C

Record: O=S(=O)(Nc1cncc(Cl)n1)c1ccc(C(F)(F)F)cc1 [Compound 5b] 125 to 127.2 °C

Param item: CC(=O)Nc1ccc(S(=O)(=O)Nc2cnccn2)cc1 [Compound 2a] 243.8 to 245.6 °C

Follow-up entry: O=S(=O)(Nc1cnccn1)c1ccc2c(c1)OCCO2 [Compound 11a] 264 to 267.1 °C

Lookup Cc1cc(C)c(S(=O)(=O)Nc2cncc(Cl)n2)c(C)c1 [Compound 9b] 179.7 to 180.2 °C
